The reported measurements were obtained from ChEMBL document CHEMBL5260831.

system: MCF7; test: Antiproliferative activity in human MCF7 cells assessed as cell growth inhibition measured after 48 hrs by MTT assay; format: functional, cell-based; conditions: MCF7, 48 h
pIC50: −log10 of the molar value.

[
  {
    "compound": "CC1=NN(c2ccccc2)C(=O)/C1=N/Nc1cccc(-c2nc3ccccc3o2)c1",
    "pIC50": 4.77
  }
]

* * *

tested on: A549; experiment: Antiproliferative activity in human A549 cells assessed as cell growth inhibition measured after 48 hrs by MTT assay; type: functional, cell-based; conditions: A549, 48 h

[
  {
    "compound": "CC1=NN(c2ccccc2)C(=O)/C1=N/Nc1cccc(-c2nc3ccccc3o2)c1",
    "study_target": "A549",
    "measure_unit": "µM",
    "IC50": 15.5
  }
]
